Listed here: items and their measured pKd.
Biological target: HLA-A*03:01
Assay: IEDB peptide-MHC binding, purified MHC/competitive/radioactivity; filed as Kd, often an IC50 or EC50 that approximates it; bounds were set here for any values at or beyond the usual limits of such assays
Conditions: source organism: human papillomavirus 18
pKd: −log10 of the molar value.
OUTCOME MEASURE: pKd

| SEQUENCE CONTENT | OUTCOME MEASURE | RESULT NUMBER |
| --- | --- | --- |
| FKDLFVVYR | pKd | 6.48 |
| LQDIEITCV | pKd | 6.20 |
| GLYNLLIRC | pKd | 6.50 |

---

Reported pKd values follow for various sequences
Molecular target: HLA-A*01:01
Experiment: IEDB peptide-MHC binding, purified MHC/competitive/radioactivity; filed as Kd, often an IC50 or EC50 that approximates it; bounds were set here for any values at or beyond the usual limits of such assays
Conditions: source organism: human papillomavirus 18
pKd: −log10 of the molar value.
OUTCOME MEASURE: pKd

| SEQUENCE CONTENT | OUTCOME MEASURE | RESULT NUMBER |
| --- | --- | --- |
| FKDLFVVYR | pKd | 6.13 |
| CIDFYSRIR | pKd | 6.09 |
| LQDIEITCV | pKd | 6.01 |
| NTGLYNLLI | pKd | 6.30 |
| DIEITCVYC | pKd | 6.30 |

---

Biological target: HLA-A*03:01
Experiment: IEDB peptide-MHC binding, purified MHC/competitive/radioactivity; filed as Kd, often an IC50 or EC50 that approximates it; bounds were set here for any values at or beyond the usual limits of such assays
Conditions: source organism: human papillomavirus 18

| SEQUENCE CONTENT | TARGET ENTITY | Kd |
| --- | --- | --- |
| LFVVYRDSI | HLA-A*03:01 | 441 nM |
| DLFVVYRDS | HLA-A*03:01 | 1000 nM |
| RQERLQRRR | HLA-A*03:01 | 484 nM |
| SVYGDTLEK | HLA-A*03:01 | 32 nM |
| IEITCVYCK | HLA-A*03:01 | 200 nM |
| HTMLCMCCK | HLA-A*03:01 | 73 nM |
| CIDFYSRIR | HLA-A*03:01 | 273 nM |
| HLNEKRRFH | HLA-A*03:01 | 667 nM |
| LLIRCLRCQ | HLA-A*03:01 | 508 nM |
| DIEITCVYC | HLA-A*03:01 | 462 nM |
| LIRCLRCQK | HLA-A*03:01 | 526 nM |
